- ASSAY_NOTES: Stability in human liver microsomes assessed as parent compound remaining at 10 uM after 60 mins in presence of NADPH by LC-MS/MS analysis
- Format: ADME, Microsome
- CONDITION_INFO: read-out: Stability
Below, each entry is listed alongside its reported remaining at 1 h, 10 µM.

remaining at 1 h, 10 µM reading for C[C@H](O)CN1[C@H](C)CN(CCSC(c2ccc(F)cc2)c2ccc(F)cc2)C[C@@H]1C : > 30%

remaining at 1 h, 10 µM reading for CC(O)CN1[C@H](C)CN(CCSC(c2ccc(F)cc2)c2ccc(F)cc2)C[C@@H]1C (mixture of isomers) : > 30%

Here is the next item to consider.
remaining at 1 h, 10 µM reading for C[C@@H]1CN(CCSC(c2ccc(F)cc2)c2ccc(F)cc2)C[C@H](C)N1C[C@@H](C)O : > 30%

###

- ASSAY_NOTES: Half life in rat liver microsomes at 10 uM in presence of NADPH generating system by LC-MS/MS analysis
- Assay type: ADME, Microsome
MEASURED_PARAMETER: half-life at 10 µM (h)
Response body: numeric value in h, unit text excluded.

half-life at 10 µM reading for CC(O)CN1CCN(CC[S+]([O-])C(c2ccc(F)cc2)c2ccc(F)cc2)CC1 (configuration not stated) : 2.1

half-life at 10 µM reading for CC(O)CN1CCN(CCSC(c2ccc(F)cc2)c2ccc(F)cc2)CC1 (configuration not stated) : 0.233

###

- TGT: Sodium-dependent dopamine transporter (Homo sapiens)
- ASSAY_NOTES: Inhibition of human DAT transiently expressed in COS7 cells assessed as reduction in [3H]-DA uptake measured after 5 mins by beta-scintillation counting method
- Assay type: cell-based, COS-7
MEASURED_PARAMETER: Ki
Don't forget the unit after the value.

Bench note, Sodium-dependent dopamine transporter (Homo sapiens): entry CC(O)CN1[C@H](C)CN(CCSC(c2ccc(F)cc2)c2ccc(F)cc2)C[C@@H]1C (mixture of isomers) , its Ki = 100 nM

Continuing:
Bench note, Sodium-dependent dopamine transporter (Homo sapiens): entry OC(CN1CCC2(CCN(CCSC(c3ccc(F)cc3)c3ccc(F)cc3)CC2)C1)c1ccccc1 (centres undefined) , its Ki = 268 nM

Bench note, Sodium-dependent dopamine transporter (Homo sapiens): entry CC(O)CN1[C@H](C)CN(CC[S+]([O-])C(c2ccc(F)cc2)c2ccc(F)cc2)C[C@@H]1C (some centres undefined) , its Ki = 552 nM

Bench note, Sodium-dependent dopamine transporter (Homo sapiens): entry C[C@@H]1CN(CC[S+]([O-])C(c2ccc(F)cc2)c2ccc(F)cc2)C[C@H](C)N1CC(O)Cc1ccccc1 (some centres undefined) , its Ki = 11.1 nM

###

- ASSAY_NOTES: Stability in mouse liver microsomes at 10 uM after 60 mins in presence of NADPH by LC-MS/MS analysis
- Type: ADME, Microsome
- CONDITION_INFO: 1 h
MEASURED_PARAMETER: Stability

Some entries whose results are on file:
Stability reading for OC(Cc1ccc(F)cc1)CN1CCN(CCSC(c2ccc(F)cc2)c2ccc(F)cc2)CC1 (stereo unspecified) : Unstable

Stability reading for C[C@H](O)CN1CCN(CC[S+]([O-])C(c2ccc(F)cc2)c2ccc(F)cc2)CC1 (stereo partly specified) : Stable

Stability reading for C[C@@H](O)CN1CCN(CC[S+]([O-])C(c2ccc(F)cc2)c2ccc(F)cc2)CC1 (stereo partly specified) : Stable

Stability reading for [O-][S+](CCN1CCN(CC(O)Cc2ccc(F)cc2)CC1)C(c1ccc(F)cc1)c1ccc(F)cc1 (stereo unspecified) : Unstable

Stability reading for [O-][S+](CCN1CCN(C[C@@H](O)Cc2ccccc2)CC1)C(c1ccc(F)cc1)c1ccc(F)cc1 (stereo partly specified) : Unstable

Stability reading for [O-][S+](CCN1CCN(CC(O)Cc2ccc(C(F)(F)F)cc2)CC1)C(c1ccc(F)cc1)c1ccc(F)cc1 (stereo unspecified) : Unstable

Stability reading for COc1ccc(CC(O)CN2CCN(CC[S+]([O-])C(c3ccc(F)cc3)c3ccc(F)cc3)CC2)cc1 (stereo unspecified) : Unstable

Stability reading for [O-][S+](CCN1CCN(C[C@H](O)Cc2ccccc2)CC1)C(c1ccc(F)cc1)c1ccc(F)cc1 (stereo partly specified) : Unstable

Continuing:
Stability reading for O[C@@H](Cc1ccccc1)CN1CCN(CCSC(c2ccc(F)cc2)c2ccc(F)cc2)CC1 : Unstable

Stability reading for [O-][S+](CCCN1CCN(CCCc2ccccc2)CC1)C(c1ccc(F)cc1)c1ccc(F)cc1 (stereo unspecified) : Unstable

Stability reading for O[C@H](Cc1ccccc1)CN1CCN(CCSC(c2ccc(F)cc2)c2ccc(F)cc2)CC1 : Unstable

###

- TGT: Sodium-dependent dopamine transporter (Homo sapiens, UniProt Q01959)
- Sequence (Q01959 whole entry): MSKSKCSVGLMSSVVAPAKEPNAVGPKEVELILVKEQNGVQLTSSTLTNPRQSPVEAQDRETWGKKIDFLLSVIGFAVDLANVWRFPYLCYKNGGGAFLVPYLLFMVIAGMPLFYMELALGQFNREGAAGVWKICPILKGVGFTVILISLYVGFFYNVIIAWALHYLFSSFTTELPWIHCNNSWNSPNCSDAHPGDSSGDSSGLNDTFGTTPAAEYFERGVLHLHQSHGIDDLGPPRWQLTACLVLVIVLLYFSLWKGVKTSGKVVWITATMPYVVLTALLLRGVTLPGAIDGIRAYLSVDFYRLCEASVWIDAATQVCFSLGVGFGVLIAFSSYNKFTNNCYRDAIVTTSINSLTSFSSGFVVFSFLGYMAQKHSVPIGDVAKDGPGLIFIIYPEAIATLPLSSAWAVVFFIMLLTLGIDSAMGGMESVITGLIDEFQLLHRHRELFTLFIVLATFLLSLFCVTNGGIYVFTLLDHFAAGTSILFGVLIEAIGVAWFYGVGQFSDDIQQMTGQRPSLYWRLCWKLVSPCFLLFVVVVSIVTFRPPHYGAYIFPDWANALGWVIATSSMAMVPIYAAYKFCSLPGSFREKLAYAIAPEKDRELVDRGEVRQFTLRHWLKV
- ASSAY_NOTES: Displacement of [3H]WIN35428 from DAT (unknown origin) transiently expressed in COS7 cells incubated for > 90 mins by beta scintillation counting method
- Format: cell-based, COS-7
MEASURED_PARAMETER: pKi
pKi (log units): -log10 of the concentration in mol/L.

Some entries whose results are on file:
pKi reading for CC(O)CN1[C@H](C)CN(CC[S+]([O-])C(c2ccc(F)cc2)c2ccc(F)cc2)C[C@@H]1C (some centres undefined) : 6.39

pKi reading for OC(CN1CCC2(CCN(CCSC(c3ccc(F)cc3)c3ccc(F)cc3)CC2)C1)c1ccccc1 (centres undefined) : 6.98

pKi reading for CC(O)CN1[C@H](C)CN(CCSC(c2ccc(F)cc2)c2ccc(F)cc2)C[C@@H]1C (mixture of isomers) : 7.23

Here is the next item to consider.
pKi reading for C[C@@H]1CN(CC[S+]([O-])C(c2ccc(F)cc2)c2ccc(F)cc2)C[C@H](C)N1CC(O)Cc1ccccc1 (some centres undefined) : 8.42

###

Below, each entry is listed alongside its reported pKi.
- TGT: Sodium-dependent serotonin transporter (Rattus norvegicus)
- Sequence (P31652 whole entry): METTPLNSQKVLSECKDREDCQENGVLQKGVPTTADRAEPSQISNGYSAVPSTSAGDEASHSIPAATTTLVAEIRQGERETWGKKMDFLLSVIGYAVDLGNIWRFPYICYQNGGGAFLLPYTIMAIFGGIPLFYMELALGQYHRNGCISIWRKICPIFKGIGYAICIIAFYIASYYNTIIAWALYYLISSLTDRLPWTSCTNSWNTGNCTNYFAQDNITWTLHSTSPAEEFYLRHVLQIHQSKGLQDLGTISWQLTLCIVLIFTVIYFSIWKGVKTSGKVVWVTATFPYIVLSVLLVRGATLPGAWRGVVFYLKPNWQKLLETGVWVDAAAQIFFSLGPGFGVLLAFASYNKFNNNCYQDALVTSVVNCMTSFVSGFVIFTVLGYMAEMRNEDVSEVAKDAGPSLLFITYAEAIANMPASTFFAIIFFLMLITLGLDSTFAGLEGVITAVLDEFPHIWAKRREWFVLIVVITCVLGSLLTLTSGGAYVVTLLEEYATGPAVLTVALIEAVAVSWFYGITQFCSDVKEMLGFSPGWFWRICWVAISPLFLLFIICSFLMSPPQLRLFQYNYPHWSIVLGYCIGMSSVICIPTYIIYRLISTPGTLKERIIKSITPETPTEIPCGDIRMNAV
pKi (log units): -log10 of the concentration in mol/L.

Bench note, Sodium-dependent serotonin transporter (Rattus norvegicus): entry CC(=O)CN1CCN(CCSC(c2ccc(F)cc2)c2ccc(F)cc2)CC1 , its pKi = 4.76

Bench note, Sodium-dependent serotonin transporter (Rattus norvegicus): entry OC(Cc1ccc(F)cc1)CN1CCN(CCSC(c2ccc(F)cc2)c2ccc(F)cc2)CC1 (stereo not drawn) , its pKi = 5.86

Here is the next item to consider.
Bench note, Sodium-dependent serotonin transporter (Rattus norvegicus): entry C[C@H](O)CN1CCN(CCSC(c2ccc(F)cc2)c2ccc(F)cc2)CC1 , its pKi = 5.40

###

So I've got IC50 readings for Voltage-gated inwardly rectifying potassium channel KCNH2 (Homo sapiens, UniProt Q12809), take a look.

Some entries whose results are on file:
IC50 reading for C[C@@H]1CN(CC[S+]([O-])C(c2ccc(F)cc2)c2ccc(F)cc2)C[C@H](C)N1CC(O)Cc1ccccc1 (stereo partly drawn) : 91.5 nM

IC50 reading for CC(O)CN1[C@H](C)CN(CCSC(c2ccc(F)cc2)c2ccc(F)cc2)C[C@@H]1C (mixture of isomers) : 635 nM

Here is the next item to consider.
IC50 reading for CC(O)CN1[C@H](C)CN(CC[S+]([O-])C(c2ccc(F)cc2)c2ccc(F)cc2)C[C@@H]1C (stereo partly drawn) : 7300 nM

###

So I've got pKi readings for Sodium-dependent serotonin transporter (Rattus norvegicus, UniProt P31652), take a look.
pKi (log units): -log10 of the concentration in mol/L.

pKi reading for C[C@@H](O)CN1CCN(CC[S+]([O-])C(c2ccc(F)cc2)c2ccc(F)cc2)CC1 (some centres undefined) : 4.09

Continuing:
pKi reading for C[C@H](O)CN1CCN(CC[S+]([O-])C(c2ccc(F)cc2)c2ccc(F)cc2)CC1 (some centres undefined) : 3.70

pKi reading for O=C(CCc1ccccc1)N1CCN(CCSC(c2ccc(F)cc2)c2ccc(F)cc2)CC1 : 5.60

pKi reading for C[C@H](O)CN1[C@H](C)CN(CCSC(c2ccc(F)cc2)c2ccc(F)cc2)C[C@@H]1C : 4.81

pKi reading for [O-][S+](CCCN1CCN(CCCc2ccccc2)CC1)C(c1ccc(F)cc1)c1ccc(F)cc1 (centres undefined) : 5.96

pKi reading for COc1ccc(CC(O)CN2CCN(CC[S+]([O-])C(c3ccc(F)cc3)c3ccc(F)cc3)CC2)cc1 (centres undefined) : 4.84

pKi reading for COc1ccc(CC(O)CN2CCN(CCSC(c3ccc(F)cc3)c3ccc(F)cc3)CC2)cc1 (centres undefined) : 5.85

pKi reading for [O-][S+](CCN1CCN(C[C@H](O)Cc2ccccc2)CC1)C(c1ccc(F)cc1)c1ccc(F)cc1 (some centres undefined) : 4.73

pKi reading for O[C@H](Cc1ccccc1)CN1CCN(CCSC(c2ccc(F)cc2)c2ccc(F)cc2)CC1 : 6.09

pKi reading for Fc1ccc(C(SCCCN2CCN(CCCc3ccccc3)CC2)c2ccc(F)cc2)cc1 : 5.97
